Reference source: the supplement of paper PMC11417369

# System: PfAP2-I AP2 domain 3 (GST-tagged)
# METHOD_DESCRIPTION: gcPBM binding intensity (ln(normalized median fluorescence intensity)); higher = stronger DNA binding
The full ranking holds about 25,000 sequences; the median of “ln(normalized median fluorescence intensity)” is about 7.9, and the highest 2% start at about 11. The sample as a whole holds a higher share of the highest values than the screen did.
Everything with gcPBM binding intensity (ln) lower than 8 is FALSE; everything else, including exactly 8, is TRUE.

[[record]]
primary_sequence = "ATATATTATATTATATGTACTTAAAAAAGTGCAAAG [XGTACX_site318]"
label = "TRUE"

[[record]]
primary_sequence = "CATTATGTACAAAAAGTGCAATATATATTAACACTG"
label = "TRUE"

[[record]]
primary_sequence = "TAAATTAAAAAACATAAACTATTGGAAACGCATTGA [CACACA_negctrl_site935]"
label = "FALSE"

[[record]]
primary_sequence = "AAAAAAAAAAGAAACACACACATATAGATTTATAAC [CACACA_site6927]"
label = "FALSE"

[[record]]
primary_sequence = "GATATATAATATAATACACACATTTTATGAATGTAA [CACACA_site24]"
label = "FALSE"

[[record]]
primary_sequence = "TTTTAATATATAGAGTAACAAATTTGTCTATTAATA [CACACA_negctrl_site1495]"
label = "FALSE"

[[record]]
primary_sequence = "AATAACAAAATATTAACACACATAACATATTATAAA [CACACA_site2803]"
label = "FALSE"

[[record]]
primary_sequence = "ACAATATGCAAAAAGTGTACACATTCATTTATATAA [XGTACX_site1061]"
label = "TRUE"

[[record]]
primary_sequence = "AAAATTATGCAGTAGGTGCAATACCCTCGGCTTTTT [GTGCAC_site9556]"
label = "TRUE"


* * *

# Tested on: PfAP2-I AP2 domain 3 (GST-tagged)
# METHOD_DESCRIPTION: gcPBM binding intensity (ln(normalized median fluorescence intensity)); higher = stronger DNA binding
Over roughly 25,000 sequences, “ln(normalized median fluorescence intensity)” has its median near 7.9; the highest 2% begin near 11. What follows is part of a selection rich in the highest values, with near analogues and random picks from the rest.
Measured gcPBM binding intensity (ln) by item
ASSAY_READOUT: gcPBM binding intensity (ln)

[[record]]
primary_sequence = "GAAATAATTCGATGTGCATGTAACGTTTCCCCAAAG [TGCATGCA_site122]"
tested_system = "PfAP2-I AP2 domain 3 (GST-tagged)"
reading = 8.58

[[record]]
primary_sequence = "TTATATATATATATATATATATATATATATATAAAT [GTGCAC_negctrl_site126]"
tested_system = "PfAP2-I AP2 domain 3 (GST-tagged)"
reading = 8.41

[[record]]
primary_sequence = "AAAATTATTTAGTAAGTGCAAAAAAAAAAAAAAAAA"
tested_system = "PfAP2-I AP2 domain 3 (GST-tagged)"
reading = 10.1

[[record]]
primary_sequence = "TTTCAATTTATCAGTGTGCACAAAAATAAAATAAAA"
tested_system = "PfAP2-I AP2 domain 3 (GST-tagged)"
reading = 10.9

[[record]]
primary_sequence = "TATTTATAAATATGTGTGCACAATTTATTTTATAAT"
tested_system = "PfAP2-I AP2 domain 3 (GST-tagged)"
reading = 11

[[record]]
primary_sequence = "AAATAATACATTCGTACTACACATATATATTAAATA [XGTACX_site7806]"
tested_system = "PfAP2-I AP2 domain 3 (GST-tagged)"
reading = 7.84

[[record]]
primary_sequence = "ATTTTTTTCTTAGGAGTGCACTTATATTTATTTTAT"
tested_system = "PfAP2-I AP2 domain 3 (GST-tagged)"
reading = 10.8

[[record]]
primary_sequence = "TCCGCATGTACATGGGTGCACATAACACCCATTTAA [GTGCAC_site9881]"
tested_system = "PfAP2-I AP2 domain 3 (GST-tagged)"
reading = 10.4

[[record]]
primary_sequence = "AGGAAATTTTTTTTTTTTTTTTTTTTTTTTTTTTAC [TGCATGCA_negctrl_site170]"
tested_system = "PfAP2-I AP2 domain 3 (GST-tagged)"
reading = 7.5

[[record]]
primary_sequence = "GAATAAATATTAAATGTGCACTTGAATAGATGTAAA"
tested_system = "PfAP2-I AP2 domain 3 (GST-tagged)"
reading = 10.1

[[record]]
primary_sequence = "TTTATTTAAAATAAGTGTACTAGAAAAATTAAGCAG [XGTACX_site4982]"
tested_system = "PfAP2-I AP2 domain 3 (GST-tagged)"
reading = 8.55

[[record]]
primary_sequence = "GATATACAATTTAAGTGTACTATAATAAAATATATA [XGTACX_site3013]"
tested_system = "PfAP2-I AP2 domain 3 (GST-tagged)"
reading = 7.79

[[record]]
primary_sequence = "ATCAAAAATATAAAAAATATAAACAATTTATTATCA [CACACA_negctrl_site768]"
tested_system = "PfAP2-I AP2 domain 3 (GST-tagged)"
reading = 7.32

[[record]]
primary_sequence = "TTTTTTCTTTTCAAGGTGCTTTATAAGAAAAAGGGA [GTGCAC_site9858]"
tested_system = "PfAP2-I AP2 domain 3 (GST-tagged)"
reading = 11.1

[[record]]
primary_sequence = "CTATATTTTTAAAAATGTACTTTATAATAAAATACT [XGTACX_site3593]"
tested_system = "PfAP2-I AP2 domain 3 (GST-tagged)"
reading = 7.83

[[record]]
primary_sequence = "AATTTTCATTTTAGAAGTACACACAAAAAATAAAAT [XGTACX_site4426]"
tested_system = "PfAP2-I AP2 domain 3 (GST-tagged)"
reading = 8.13

[[record]]
primary_sequence = "ATTTTATTTTCATATGAACACACATATATATATTAT [CACACA_site8741]"
tested_system = "PfAP2-I AP2 domain 3 (GST-tagged)"
reading = 8.35

[[record]]
primary_sequence = "ATTATATACAAATAAAGTACATAAACAAATTCAGAA [XGTACX_site1187]"
tested_system = "PfAP2-I AP2 domain 3 (GST-tagged)"
reading = 7.77

[[record]]
primary_sequence = "TATTTCACTTTTTGTCTGCACTAAAATTTTATGGTA"
tested_system = "PfAP2-I AP2 domain 3 (GST-tagged)"
reading = 9.46

[[record]]
primary_sequence = "ATACACACTCAAAAAAGTACTTAACTACATGAATTG [XGTACX_site6366]"
tested_system = "PfAP2-I AP2 domain 3 (GST-tagged)"
reading = 7.79

[[record]]
primary_sequence = "AATACTTTTTATTTAGTGCATAAGAAAATATAAATC [GTGCAC_site9875]"
tested_system = "PfAP2-I AP2 domain 3 (GST-tagged)"
reading = 10.9

[[record]]
primary_sequence = "CAATTTATTATATATGTGCACATATAATTTTACAAA"
tested_system = "PfAP2-I AP2 domain 3 (GST-tagged)"
reading = 9.59

[[record]]
primary_sequence = "CTTGTGCTTTATAGGGTGCACATTTTGTTTTGGTAA [GTGCAC_site9899]"
tested_system = "PfAP2-I AP2 domain 3 (GST-tagged)"
reading = 11

[[record]]
primary_sequence = "ATATACACTTAATTTTTTATAAAAAAAAATTTATAT [CACACA_negctrl_site498]"
tested_system = "PfAP2-I AP2 domain 3 (GST-tagged)"
reading = 7.66

[[record]]
primary_sequence = "AAATATAAGAAAAAGGTGCTTTTTTTTTTTTTTTTT [GTGCAC_site9700]"
tested_system = "PfAP2-I AP2 domain 3 (GST-tagged)"
reading = 9.79

[[record]]
primary_sequence = "TTTTTTTTTCTTCTTTTCAAATTTAAGAAATTATAA [CACACA_negctrl_site18]"
tested_system = "PfAP2-I AP2 domain 3 (GST-tagged)"
reading = 7.55

[[record]]
primary_sequence = "ATATTATATCTAATCGTGCACAACTGTACATTTGTC"
tested_system = "PfAP2-I AP2 domain 3 (GST-tagged)"
reading = 10.5

[[record]]
primary_sequence = "AAAAAAAATTATGAAGTGCATTAGTGAATTTGATTG"
tested_system = "PfAP2-I AP2 domain 3 (GST-tagged)"
reading = 10.9

[[record]]
primary_sequence = "AAATTTAAAAATAAAGAACACACATATGTAAAATAT [CACACA_site9252]"
tested_system = "PfAP2-I AP2 domain 3 (GST-tagged)"
reading = 7.91

[[record]]
primary_sequence = "ATTATTTGTTTAATGAGTACGAAGACAAATTTTACC [XGTACX_site5223]"
tested_system = "PfAP2-I AP2 domain 3 (GST-tagged)"
reading = 8.12

[[record]]
primary_sequence = "AAAAATATAATATAATGTACACAAAAAAAAAAAATC [XGTACX_site1427]"
tested_system = "PfAP2-I AP2 domain 3 (GST-tagged)"
reading = 7.93

[[record]]
primary_sequence = "TTATAATTTTAATGTGCACACAATTAAAATATTATA [CACACA_site5172]"
tested_system = "PfAP2-I AP2 domain 3 (GST-tagged)"
reading = 10.8

[[record]]
primary_sequence = "ATATATTTAAACTACACACGCATATCTTAGAAATAA [CACACA_site1272]"
tested_system = "PfAP2-I AP2 domain 3 (GST-tagged)"
reading = 7.77

[[record]]
primary_sequence = "TTTTGATTAAGTGAATTTTTTTATTTATATAAATAT [TGCATGCA_negctrl_site479]"
tested_system = "PfAP2-I AP2 domain 3 (GST-tagged)"
reading = 7.54

[[record]]
primary_sequence = "ATTCAAAAGGTTTAATGTACGTGATGTTTCACAAAT [XGTACX_site784]"
tested_system = "PfAP2-I AP2 domain 3 (GST-tagged)"
reading = 7.74

[[record]]
primary_sequence = "ATATAGAAAATGCATACACACTTTATAAATATATTT [CACACA_site6553]"
tested_system = "PfAP2-I AP2 domain 3 (GST-tagged)"
reading = 7.92

[[record]]
primary_sequence = "TAGGCGTTTAATAAAAGTACCCACACATATATTATT [XGTACX_site1932]"
tested_system = "PfAP2-I AP2 domain 3 (GST-tagged)"
reading = 7.68

[[record]]
primary_sequence = "TTTTTTCAATTTTTTTTAAATAAACCACAAAAAAAA [CACACA_negctrl_site1701]"
tested_system = "PfAP2-I AP2 domain 3 (GST-tagged)"
reading = 7.74

[[record]]
primary_sequence = "TTTTTTTTTTTTGGTGCATGCACATTTTGTTTTTTT [TGCATGCA_site570]"
tested_system = "PfAP2-I AP2 domain 3 (GST-tagged)"
reading = 9.85

[[record]]
primary_sequence = "TTTTACATATACATGTGTACATAACAAAGAATGTTT [XGTACX_site2406]"
tested_system = "PfAP2-I AP2 domain 3 (GST-tagged)"
reading = 7.88

